Listed below: inhibition of aggregation values for each entry.
- Experiment: reduction of polyQ htt aggregates in cells – imaging, exon1htt(103Q)mCFP cells, high-content imaging, primary screen (AID 483);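 also: compound exposure lasted 3 days before fixation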
- Conditions used: exon1htt(103Q)mCFP cell line, aggregate imaging, at 2 µM; hits give high values
Property name: inhibition of aggregation (%)

>>> df
                                   molecule  endpoint_unit  meas_value
0  Cc1ccc2c(c1)CCCN2C(=O)C1CCCO1 (stereo unspecified)              %         7.6
1    Clc1ccc(Cn2ncc3c(NCc4cccnc4)ncnc32)cc1              %        -3.5
2  COc1ccc(CN2C(=O)c3ccccc3C2C(=O)NC2CCCC2)c(OC)c1 (stereo unspecified)              %         8.3
3              CCOC(=O)N1CCN(Cc2ccccc2F)CC1              %        15.1
4  COC(=O)c1cnn2c(C(F)(F)F)cc(-c3ccco3)nc12              %        38.2
5              COc1oc(-c2ccccc2)nc1C(F)(F)F              %         0.7

---

- Assay system: Voltage-gated potassium channel subunit beta-2 (Rattus norvegicus)
- Experiment: enhancers of rat Kvbeta2 NADPH turnover – biochemical, NADPH fluorescence, primary screen (AID 623);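 also: fluorescence intensity change per second fitted from 20 to 320 s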
- Conditions used: Recombinant KvBeta, NADPH fluorescence decrease slope, 10 min; at 10 µM; hits give low values
Listed below: NADPH fluorescence slope values for each entry.
Property name: NADPH fluorescence slope

>>> print(df.to_string())
                                    compound                              assay_system  meas_value
 0  Cc1cc(C)nc(SCc2nnc(SCC(=O)Nc3ncc(C)s3)n2Cc2ccco2)n1  Voltage-gated potassium channel subunit beta-2 (Rattus norvegicus)    -6.9e-05
 1  Cc1cc(-c2ccccc2)nc2cc(C(=O)NCCCn3ccnc3)nn12  Voltage-gated potassium channel subunit beta-2 (Rattus norvegicus)     1.5e-05
 2            CCOC(=O)c1c(NC(=O)OC)sc2c1CCC2  Voltage-gated potassium channel subunit beta-2 (Rattus norvegicus)    -1.5e-05
 3  O=C(Cn1c(=O)n(Cc2ccc3c(c2)OCO3)c(=O)c2ccccc21)N1CCCc2ccccc21  Voltage-gated potassium channel subunit beta-2 (Rattus norvegicus)    -6.4e-06
 4                COC(=O)COc1ccc(C(=O)OC)cc1  Voltage-gated potassium channel subunit beta-2 (Rattus norvegicus)     1.1e-05
 5          CCc1nccn1S(=O)(=O)c1ccc(C)c(C)c1  Voltage-gated potassium channel subunit beta-2 (Rattus norvegicus)    -5.2e-05
 6  COc1ccccc1CN1C(=O)CCC1(C)C(=O)NC1CCCCCC1 (stereo unspecified)  Voltage-gated potassium channel subunit beta-2 (Rattus norvegicus)    0.000132
 7  Cc1ccc(Cn2nnc3c(=O)[nH]c(C4CCN(S(=O)(=O)c5ccc(F)cc5)CC4)nc32)cc1  Voltage-gated potassium channel subunit beta-2 (Rattus norvegicus)     1.2e-05
 8  Cc1nc(C)c(C(=O)OCC(=O)N2CCN(c3ccccc3)CC2)s1  Voltage-gated potassium channel subunit beta-2 (Rattus norvegicus)      -2e-05
 9  COc1cccc(CN(C(=O)c2cc3ccccc3oc2=O)C2CC2)c1  Voltage-gated potassium channel subunit beta-2 (Rattus norvegicus)    -2.3e-05
10  O=C(NCc1ccco1)C1CCN(c2ccc(N3CCOCC3)nn2)CC1  Voltage-gated potassium channel subunit beta-2 (Rattus norvegicus)       8e-06
